- Target under test: Torsin-1A-interacting protein 2 (Homo sapiens) (UniProt Q8NFQ8)
- Sequence (Q8NFQ8 whole entry, looked up): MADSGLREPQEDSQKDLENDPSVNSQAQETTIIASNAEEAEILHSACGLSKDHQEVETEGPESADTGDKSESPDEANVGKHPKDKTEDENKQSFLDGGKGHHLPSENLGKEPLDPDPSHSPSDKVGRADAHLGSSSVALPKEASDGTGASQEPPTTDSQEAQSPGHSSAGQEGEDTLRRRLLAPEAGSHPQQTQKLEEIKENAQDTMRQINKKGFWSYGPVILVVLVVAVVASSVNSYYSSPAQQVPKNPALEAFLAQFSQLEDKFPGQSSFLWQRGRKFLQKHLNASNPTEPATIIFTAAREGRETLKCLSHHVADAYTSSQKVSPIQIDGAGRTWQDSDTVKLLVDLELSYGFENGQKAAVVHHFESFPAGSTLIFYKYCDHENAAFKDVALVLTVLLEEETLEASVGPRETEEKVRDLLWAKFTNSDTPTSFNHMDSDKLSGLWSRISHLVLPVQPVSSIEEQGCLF
- Protocol details: LULL1 binders on small-molecule microarray, primary screen, cell lysate, human LULL1 lysate, 635/667 nm fluorescence (AID 1092);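 also: probe is lysate of COS7 cells overexpressing human LULL1; score merges per-feature 667 nm fluorescence with signal-to-noise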
- Assay context: hLULL1 lysate binding, 635 nm fluorescence, higher = more signal
Readout: composite z-score
Reply: number alone, nothing else.

[in] Input CO[C@H]1COC(=O)CC=C[C@H](C)[C@@H](OC)COC(=O)[C@@H](C)COC(=O)CC=C[C@@H]1C , output reported composite z-score.
[out] -0.108

[in] Input CC(C)=NOC[C@@H](C)[C@H](OCc1ccccc1)C(C)C , output reported composite z-score.
[out] -0.602

[in] Input COC(=O)[C@H](C)NC(=O)CCC1CC(OC(=O)NCc2cccc3ccccc23)CC2(CCCC(COC(=O)NCC(c3ccccc3)c3ccccc3)O2)O1 (stereo partly drawn) , output reported composite z-score.
[out] 2.99

[in] Input CC(=O)OC[C@H]1OC(ON=CC[C@@H]2C=C[C@H](OC(C)=O)[C@@H](COC(C)=O)O2)[C@H](OC(C)=O)[C@@H](OC(C)=O)[C@@H]1OC(C)=O (stereo partly drawn) , output reported composite z-score.
[out] 0.828

[in] Input O=C1C[C@@H](O)[C@@H](O)[C@@H]2[C@@H]3C(=O)N(Cc4ccccc4)C(=O)[C@@H]3CC[C@@H]12 , output reported composite z-score.
[out] 0.824

[in] Input CCOC(=O)[C@H](CC(C)C)NC(=O)CCC1CC(OC(=O)NCCc2ccc(F)cc2)CC2(CCCC(COC(=O)NCC3CCCCC3)O2)O1 (stereo partly drawn) , output reported composite z-score.
[out] 1.12

[in] Input CO[C@H]1COC(=O)[C@@H]2CCCN2C(=O)CC=C[C@@H](C)[C@H](OC)COC(=O)[C@@H](OCc2ccccc2)C=C[C@@H]1C , output reported composite z-score.
[out] -1.13

[in] Input C#CCCCON=C1C[C@@H](O)[C@@H](O)[C@@H]2[C@@H]3C(=O)N(Cc4ccccc4)C(=O)[C@@H]3CC[C@@H]12 , output reported composite z-score.
[out] -0.569

[in] Input O=C1C[C@@H](O)[C@@H](O)[C@@H]2[C@@H]3C(=O)N(C[C@@H]4CCCO4)C(=O)[C@@H]3CC[C@H]12 , output reported composite z-score.
[out] 0.493

[in] Input CO[C@H]1COC(=O)CC=C[C@@H](C)[C@H](NS(=O)(=O)c2ccc(C)cc2)COC(=O)CCC[C@@H]1C , output reported composite z-score.
[out] -0.401

[in] Input CO[C@@H]1C=CCC(=O)N[C@@H](C)C(=O)OC[C@@H](OC)[C@H](C)CCCC(=O)OC[C@H]1C , output reported composite z-score.
[out] -2.13

[in] Input O=C1C[C@@H](O)[C@@H](O)[C@@H]2[C@@H]3C(=O)N(Cc4ccc5c(c4)OCO5)C(=O)[C@@H]3CC[C@H]12 , output reported composite z-score.
[out] 0.443

[in] Input O=C(NN=C1C[C@@H](O)[C@@H](O)[C@@H]2[C@@H]3C(=O)N(C[C@@H]4CCCO4)C(=O)[C@@H]3CC[C@H]12)OCc1ccccc1 , output reported composite z-score.
[out] 0.126

[in] Input COC(=O)CC=C[C@@H](C)[C@@H](C=NO[C@H](C)c1cn([C@@H]2COC[C@H]2O)nn1)NS(=O)(=O)c1ccc(C)cc1 , output reported composite z-score.
[out] -0.0305

[in] Input O=C1[C@H]2[C@H]3[C@H](O)[C@H](O)CC(=NOCc4ccccc4)[C@@H]3CC[C@H]2C(=O)N1c1ccc(F)cc1F , output reported composite z-score.
[out] 0.324

[in] Input C#CCCCON=C1[C@H]2CCn3c(=O)n(-c4ccccc4)c(=O)n3[C@H]2[C@H](O)[C@@H]2O[C@H]12 , output reported composite z-score.
[out] 0.463

[in] Input COC(=O)[C@@H]1CC[C@H](C)[C@@H](c2ccc(C)cc2)N1C(=O)c1ccc(C=NO[C@@H](C)c2cn([C@H](CO)Cc3ccccc3)nn2)cc1 , output reported composite z-score.
[out] 1.57

[in] Input CCCNC(=O)OC[C@H]1O[C@H](CCON=C(C)CCC(=O)OC[C@H]2O[C@H](c3ccccc3)C=C[C@@H]2Oc2ccc(OC)cc2)C=C[C@@H]1Oc1ccc(OC)cc1 , output reported composite z-score.
[out] -1.09

[in] Input CCOC(=O)[C@H](CC(C)C)NC(=O)CCC1CC(OC(=O)NCCc2ccc(F)cc2)CC2(CCCC(COC(=O)NCCOc3ccccc3)O2)O1 (stereo partly drawn) , output reported composite z-score.
[out] 2.21

[in] Input CC(C)=CCCC(C)=CCON=C1C[C@@H](O)[C@@H](O)[C@@H]2[C@@H]3C(=O)N(Cc4ccccc4)C(=O)[C@@H]3CC[C@@H]12 , output reported composite z-score.
[out] -0.859

[in] Input CCOC(=O)NN=C1C[C@@H](O)[C@@H](O)[C@@H]2[C@@H]3C(=O)N(c4cccc(Oc5ccccc5)c4)C(=O)[C@@H]3CC[C@H]12 , output reported composite z-score.
[out] 0.0068

[in] Input CC(C)C[C@H](NC(=O)CCC1CC(OC(=O)NCc2cccc3ccccc23)CC2(CCCC(COC(=O)NCc3ccccc3)O2)O1)C(=O)NCC(c1ccccc1)c1ccccc1 (stereo partly drawn) , output reported composite z-score.
[out] 1.97

[in] Input CC(CCN1CCCCc2nc(C)c(C)cc21)=NOC[C@@H](C)[C@H](OCc1ccccc1)C(C)C , output reported composite z-score.
[out] -0.569

[in] Input COC(=O)C1=C(C)N(Cc2ccccc2)[C@]23O[C@](C(=O)OC)(C(=O)N2[C@@H]1c1ccccc1)C(C(=O)OC)=C3C(=O)OC , output reported composite z-score.
[out] 1.31

[in] Input O=C1CCCC=C1C(CCc1ccccc1)OC(=O)c1ccc(Br)cc1 (stereo not drawn) , output reported composite z-score.
[out] -0.699

[in] Input CC(=O)OC[C@H]1O[C@H](CC=NO[C@H](C)c2cn([C@H](CO)Cc3ccccc3)nn2)C=C[C@@H]1OC(C)=O , output reported composite z-score.
[out] 1.06

[in] Input COC(=O)CC=C[C@@H](C)[C@@H](C=NOC[C@@H](O)[C@H]1O[C@@H]2OC(C)(C)O[C@@H]2[C@H]1O)NS(=O)(=O)c1ccc(C)cc1 , output reported composite z-score.
[out] 0.308

[in] Input COc1cccc([C@@H]2Oc3ccc(OC)cc3C(=O)[C@H]2O)c1 , output reported composite z-score.
[out] 0.704

----------
Give measured composite z-score for each item. Keep answers brief.
- System: Sam68 (KHDRBS1)
- Protocol details: Sam68 small-molecule binders, primary screen, biochemical, small-molecule microarray, 635 nm fluorescence (AID 1125);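 also: score merges 667 nm channel intensity with signal to noise over triplicate slides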
- Assay context: small-molecule microarray binding, higher = more signal
Reply: number alone, nothing else.

[in] Input COc1ccc(O[C@H]2C=C[C@@H](c3ccccc3)O[C@@H]2CON=C(C)CCC(=O)OC[C@H]2O[C@H](c3ccccc3)C=C[C@@H]2Oc2ccc(OC)cc2)cc1 , output reported composite z-score.
[out] -2.54

[in] Input CON=CC[C@@H]1C=C[C@H](OC(C)=O)[C@@H](COC(C)=O)O1 , output reported composite z-score.
[out] -0.0499

[in] Input CCOC(=O)[C@H](CC(C)C)NC(=O)CCC1CC(OC(=O)NCc2ccc3c(c2)OCO3)CC2(CCCC(COC(=O)NCc3cccc(C(F)(F)F)c3)O2)O1 (some centres not stated) , output reported composite z-score.
[out] 0.119

[in] Input CC(C)=CCCC(C)=CCON=C1C[C@@H](O)[C@@H](O)[C@@H]2[C@@H]3C(=O)N(C(C)(C)C)C(=O)[C@@H]3CC[C@H]12 , output reported composite z-score.
[out] 0.293

[in] Input C[C@@H]1CC[C@H]2C(=O)O[C@@H](Cc3ccccc3)CN2[C@H]1c1ccc(Br)cc1 , output reported composite z-score.
[out] 1.06

[in] Input CO[C@@H]1C=CCC(=O)N[C@@H](C)C(=O)OC[C@@H](OC)[C@H](C)CCCC(=O)OC[C@H]1C , output reported composite z-score.
[out] -0.248

[in] Input Cn1c(=O)n2n(c1=O)[C@H]1[C@H](O)[C@@H]3O[C@@H]3C(=NOCc3ccccc3)[C@H]1CC2 , output reported composite z-score.
[out] 0.557

----------
- Target under test: Fibroblast growth factor 10 (Homo sapiens)
- Protocol details: FGF10 binders on small-molecule microarrays, primary screen, biochemical, small-molecule microarray, 635 nm fluorescence (AID 1102)
- Assay context: FGF10 binding, fluorescence 635 nm, higher = more signal
Readout: composite z-score
Reply: number alone, nothing else.

[in] Input CON=C[C@@H](C)[C@H](OCc1ccccc1)C(C)C , output reported composite z-score.
[out] 0.0578

[in] Input COC(=O)CC=C[C@@H](C)[C@@H](C=NO[C@H](C)c1cn([C@H](CO)Cc2ccccc2)nn1)NS(=O)(=O)c1ccc(C)cc1 , output reported composite z-score.
[out] 0.532

[in] Input CCCNC(=O)OC[C@H]1O[C@H](CCON=Cc2ccc(C(=O)N3[C@H](c4ccc(C)cc4)[C@@H](C)CC[C@H]3C(=O)OC)cc2)C=C[C@@H]1Oc1ccc(OC)cc1 , output reported composite z-score.
[out] 0.523

[in] Input Cc1ccc(S(=O)(=O)N[C@H]2COC(=O)CC=C[C@H](C)[C@@H](NS(=O)(=O)c3ccc(C)cc3)COC(=O)CC=C[C@@H]2C)cc1 , output reported composite z-score.
[out] 0.925

[in] Input CO[C@H]1COC(=O)[C@@H](Cc2ccccc2)NC(=O)[C@@H](C)COC(=O)CCC[C@@H]1C , output reported composite z-score.
[out] 0.517

[in] Input C#CCCCON=C1C[C@@H](O)[C@@H](O)[C@@H]2[C@@H]3C(=O)N(Cc4ccccc4)C(=O)[C@@H]3CC[C@@H]12 , output reported composite z-score.
[out] -0.158

[in] Input CCOC(=O)[C@H](Cc1ccccc1)NC(=O)CCC1CC(OC(=O)NCc2ccc3c(c2)OCO3)CC2(CCCC(COC(=O)NCCC(C)C)O2)O1 (stereo partly specified) , output reported composite z-score.
[out] 1.12

[in] Input CCOC(=O)[C@H](Cc1ccccc1)NC(=O)CCC1CC(OC(=O)NCCc2ccc(F)cc2)CC2(CCCC(COC(=O)NCCOC)O2)O1 (stereo partly specified) , output reported composite z-score.
[out] 0.984

[in] Input C=COC[C@@H]1CN2[C@@H](CC[C@@H](C)[C@@H]2c2ccc(Br)cc2)C(=O)O1 , output reported composite z-score.
[out] -0.472

[in] Input CO[C@@H]1COC(=O)CC=C[C@@H](C)[C@H](OC)COC(=O)[C@@H](C)COC(=O)CC=C[C@H]1C , output reported composite z-score.
[out] -0.55

[in] Input CCN1C(=O)[C@H]2[C@H]3[C@H](O)[C@H](O)CC(=NOCC(C)C)[C@@H]3CC[C@H]2C1=O , output reported composite z-score.
[out] 0.546

[in] Input COC(=O)CC=C[C@@H](C)[C@H](OCc1cccc(-c2ccccc2)c1)C1CCCCC1 , output reported composite z-score.
[out] -0.127

[in] Input CO[C@H]1COC(=O)CC=C[C@H](C)[C@@H](OC)COC(=O)[C@@H](C)COC(=O)CC=C[C@@H]1C , output reported composite z-score.
[out] 0.902

[in] Input CC(C)CON=C1C[C@@H](O)[C@@H](O)[C@@H]2[C@@H]3C(=O)N(c4ccc(F)cc4F)C(=O)[C@@H]3CC[C@H]12 , output reported composite z-score.
[out] 0.553

[in] Input COC(=O)NCC=Cc1nc(CCCO)co1 , output reported composite z-score.
[out] 0.534

[in] Input C#CCCCON=C1C[C@@H](O)[C@@H](O)[C@@H]2[C@@H]3C(=O)N(c4cccc(Oc5ccccc5)c4)C(=O)[C@@H]3CC[C@H]12 , output reported composite z-score.
[out] -0.948
